The compounds listed here are annotated with their EC50.
- TEST: Cytoprotective activity against H2O2-induced cytotoxicity in human EAhy926 cells pre-incubated for 24 hrs before H2O2 challenge for 12 hrs by MTT assay
- Type: functional, cell-based
- STUDY CONDITIONS: EA.hy 926
Numbers only here, please. The scale is µM.

COMPOUND SMILES: CCOC(=O)/C=C/c1ccc(OC(=O)c2nc(C)c(C)nc2C)cc1
UNIT LABEL: µM
EC50: 34.9
--
COMPOUND SMILES: CCOC(=O)/C=C/c1ccc(OC(=O)c2nc(C)c(C)nc2C)c(O)c1
UNIT LABEL: µM
EC50: 1.7

Next:
Q) For the compound shown here, CCOC(=O)/C=C/c1cc(OC)c(OC(=O)c2nc(C)c(C)nc2C)c(OC)c1 , give the reported EC50.
A) 21.4

###

- TEST: Cytoprotective activity against H2O2-induced cytotoxicity in human EAhy926 cells at 25 uM pre-incubated for 24 hrs before H2O2 challenge for 12 hrs by MTT assay
- Format: functional, EA.hy 926
MEASUREMENT LABEL: Activity (%)
Numbers only here, please. The scale is %.

Example entries and their recorded answers appear below.
COMPOUND: CCOC(=O)/C=C/c1cccc(OC(=O)c2nc(C)c(C)nc2C)c1
Activity, %: 34.2
--
COMPOUND: COc1ccc(/C=C/C(=O)O)cc1OC(=O)c1nc(C)c(C)nc1C
Activity, %: 128.1
--
COMPOUND: CCOC(=O)/C=C/c1cc(OC)c(OC(=O)c2nc(C)c(C)nc2C)c(OC)c1
Activity, %: 20.9

Next:
Q) For the compound shown here, O=C(O)CCCCC1CCSS1 (centres undefined) , give the reported Activity.
A) -12.3

###

- TEST: Anti-platelet activity in rabbit platelet-rich plasma assessed as inhibition of ADP-induced platelet aggregation at 12.5 uM incubated for 5 mins at 37 degC by aggregometry
- Type: functional
- STUDY CONDITIONS: Oryctolagus cuniculus
MEASUREMENT LABEL: inhibition at 12.5 µM (%)
Numbers only here, please. The scale is %.

COMPOUND SMILES: O=C(O)/C=C/c1ccccc1O
inhibition at 12.5 µM / %: 10.8
//
COMPOUND SMILES: CCOC(=O)/C=C/c1cc(Cl)ccc1OC(=O)c1nc(C)c(C)nc1C
inhibition at 12.5 µM / %: 26.3
//
COMPOUND SMILES: CCOC(=O)/C=C/c1ccccc1OC(=O)c1nc(C)c(C)nc1C
inhibition at 12.5 µM / %: 11.8
//
COMPOUND SMILES: Cc1nc(C)c(C(=O)Oc2ccc(/C=C/C(=O)O)cc2)nc1C
inhibition at 12.5 µM / %: 64.3

Q) For the compound shown here, Cc1nc(C)c(C(=O)Oc2cccc(/C=C/C(=O)O)c2)nc1C , give the reported inhibition at 12.5 µM.
A) 73.4

###

- TEST: Anti-platelet activity in rabbit platelet-rich plasma assessed as inhibition of ADP-induced platelet aggregation at 12.5 uM incubated for 5 mins at 37 degC by aggregometry
- Type: functional
- STUDY CONDITIONS: Oryctolagus cuniculus
Outcome label depends on inhibition at 12.5 µM relative to 30%: at/above gives true (1), below gives false (0).

Example cases with answers are listed next.
MOLECULE: CCOC(=O)/C=C/c1ccc(O)cc1 [ETHYL P-COUMARATE]
CLASS ASSIGNMENT: false (0)
--
MOLECULE: CCOC(=O)/C=C/c1ccc(OC)c(OC(=O)c2nc(C)c(C)nc2C)c1
CLASS ASSIGNMENT: false (0)
--
MOLECULE: CCOC(=O)/C=C/c1ccc(OC(=O)c2nc(C)c(C)nc2C)c(OC)c1
CLASS ASSIGNMENT: true (1)
--
MOLECULE: CCOC(=O)/C=C/c1ccc(OC)cc1OC(=O)c1nc(C)c(C)nc1C
CLASS ASSIGNMENT: true (1)

Q) Please tell me: is the molecule Cc1nc(C)c(C)nc1C at or over 30% in terms of inhibition at 12.5 µM?
A) false (0)

Q) Please tell me: is the molecule COc1ccc(/C=C/C(=O)O)c(OC(=O)c2nc(C)c(C)nc2C)c1 at or over 30% in terms of inhibition at 12.5 µM?
A) false (0)

Q) Please tell me: is the molecule Cc1nc(C)c(C(=O)Oc2ccc(/C=C/C(=O)O)cc2O)nc1C at or over 30% in terms of inhibition at 12.5 µM?
A) true (1)

Q) Please tell me: is the molecule COc1ccc(/C=C/C(=O)O)cc1OC(=O)c1nc(C)c(C)nc1C at or over 30% in terms of inhibition at 12.5 µM?
A) false (0)

Q) Please tell me: is the molecule O=C(O)/C=C/c1ccc(O)cc1 at or over 30% in terms of inhibition at 12.5 µM?
A) false (0)

Q) Please tell me: is the molecule CCOC(=O)/C=C/c1ccc(O)c(OC)c1 [ETHYL FERULATE] at or over 30% in terms of inhibition at 12.5 µM?
A) false (0)

Q) Please tell me: is the molecule COc1cc(/C=C/C(=O)O)ccc1OC(=O)c1nc(C)c(C)nc1C at or over 30% in terms of inhibition at 12.5 µM?
A) true (1)

Numbers sourced from ChEMBL document CHEMBL3580595.
